inhibition at 400 ppm listing for selected compounds.
Test system: German Cockroach
TEST_SUMMARY: Mite/insect screen, German Cockroach (GECR)
Type: in vivo
TEST_CONDITIONS: Blattella germanica, 504 h, 400 ppm, 21 day, mean of single replicate tests
Quick reminder: number only, in %, skip the unit.

CC[C@H]1CCC[C@H](O[C@H]2CC[C@H](N(C)C)[C@@H](C)O2)[C@@H](C)C(=O)C2=C[C@@H]3[C@@H](C=C(C)[C@@H]4C[C@@H](O[C@@H]5O[C@@H](C)[C@H](OC)[C@@H](OC)[C@H]5O)C[C@@H]34)[C@@H]2CC(=O)O1 [A83543Q] | 0
CC[C@H]1CCC[C@H](O[C@H]2CC[C@H](NC)[C@@H](C)O2)[C@@H](C)C(=O)C2=C[C@@H]3[C@@H](C=C[C@@H]4C[C@@H](O[C@@H]5O[C@@H](C)[C@H](OC)[C@@H](OC)[C@H]5O)C[C@@H]34)[C@@H]2CC(=O)O1 [A83543R] | 0
CO[C@@H]1[C@@H](OC)[C@@H](O)[C@H](O[C@H]2C[C@H]3[C@@H]4C=C5C(=O)[C@H](C)[C@@H](O[C@H]6CC[C@H](N(C)C)[C@@H](C)O6)CCC[C@H](C)OC(=O)C[C@H]5[C@@H]4C=C[C@@H]3C2)O[C@H]1C [A83543S] | 20

Kindly consider the entry below.
Exam item: What measured inhibition at 400 ppm is associated with CC[C@H]1CCC[C@H](O[C@H]2CC[C@H](N(C)C)[C@@H](C)O2)[C@@H](C)C(=O)C2=C[C@@H]3[C@@H](C=C[C@@H]4C[C@@H](O[C@@H]5O[C@@H](C)[C@H](OC)[C@@H](O)[C@H]5O)C[C@@H]34)[C@@H]2CC(=O)O1 [A83543T] on German Cockroach?
Marked response: 0

Data origin: patent US5767253A
